Listed compounds paired with reported viability at 28.5 h, 10 µM
- Procedure Details: in vitro
- Test Settings: human, hela cells, % viability

# Compound, viability at 28.5 h, 10 µM
records = [
    ("O=C(O)c1cccc(NC(=O)c2ccc3c(c2)C(=O)N(Cc2cccnc2)C3=O)c1 [CBK265523]", "88.5%"),
    ("O=C1CNC(=O)C2(C/C=C/C[C@H]3COCC[C@H]3N1)CCN(C(=O)C1CCOCC1)CC2 [CBK292143]", "84.9%"),
    ("CCC(CO)NCc1ccc(-c2ccccc2)cc1 (stereo not drawn) [CBK268082C]", "97.6%"),
    ("O=C1NCCNC(=O)C2(C/C=C/COc3ccccc31)CCN(Cc1ccccc1F)CC2 [CBK292024]", "101%"),
    ("COc1ccc2[nH]cc(CCNC3CCc4cccc(OC)c4C3)c2c1 (stereo not drawn) [CBK016569C]", "80.1%"),
    ("CCOC(=O)C1CCN(C(=O)Nc2cc(C)on2)CC1 [CBK306280]", "88.5%"),
    ("Cc1nn(Cc2ccccc2)c(C)c1NC(=O)CSc1nc2c(c(C(F)(F)F)n1)CCc1ccccc1-2 [CBK266112]", "105%"),
    ("CN(C)CC1CCCN(C(=O)[C@@H]2C[C@@H]3C=C[C@H]2C3)C1 (stereo partly drawn) [CBK282063]", "98%"),
    ("CCNc1nc(-c2cccc(/C=C/C(=O)O)c2)cn2ccnc12 [CBK066373]", "88.5%"),
    ("O=S(=O)(N1CCOCC1)N1CCCN(S(=O)(=O)N2CCOCC2)CC1 [CBK269068]", "103%"),
    ("C[S+]([O-])CCn1c2ccccc2c2c(N3CCCC3)nc(N3CCCC3)nc21 (stereo not drawn) [CBK017586]", "91.9%"),
    ("COc1nc2ccn(CCC3CCOC3)c(=O)c2cc1C#N (stereo not drawn) [CBK307343]", "101%"),
    ("CN1CCN(CCC(=O)N/N=C/c2ccc(O)cc2O)CC1 [CBK262849]", "94.2%"),
    ("N#Cc1c2c(c(NCCN3CCCCC3)n3c1nc1ccccc13)CCC2 [CBK263140]", "114%"),
    ("CC[C@H]1C[N@@]2CC[C@H]1C[C@@H]2CNS(=O)(=O)c1ccc(NC(C)=O)cc1 [CBK288745]", "82.9%"),
    ("O=c1c2c3nc4ccccc4nc3n(CCc3ccccc3)c2ncn1Cc1ccco1 [CBK269502]", "77.5%"),
    ("COc1ccc(CCNC(=O)CSc2nc(N)c3c4c(sc3n2)CCCC4)cc1 [CBK095784]", "94.2%"),
    ("COc1ccc(S(=O)(=O)N2CCC(C(=O)N3CCN(Cc4ccc5c(c4)OCO5)CC3)CC2)cc1Cl [CBK267614]", "86%"),
]
